molecular target: Tyrosine-protein phosphatase non-receptor type 22 (Homo sapiens); assay: PTPN22 lymphoid phosphatase activity blockers – biochemical, fluorescence intensity, uHTS (AID 1779); conditions: recombinant LYP phosphatase, at 11.5 µM;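 further: plate controls were vehicle with enzyme for no effect and no enzyme for full effect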
Hit rate of the full screen: of about 290,000 compounds, about 160 (0.055%) were called active. No stated cut-off is given here; in the data, active means inhibition above about 50%; inactive means the rest. The sample as a whole holds a higher share of actives than the screen did.
Respond only with the outcome that fits, drawn from active, inactive

COc1ccccc1CNC(=O)c1cc2sccc2n1C: inactive
COc1cccc(/C=N/NC(=O)c2cc3cc([N+](=O)[O-])ccc3s2)c1O: active
COc1ccc(OC(C)C(=O)N2CCC(C)CC2)cc1 (stereo unspecified): inactive
COc1ccc(NC(=O)CN2C(=O)/C(=C3\SC(=S)N(CCC(=O)O)C3=O)c3ccccc32)cc1: active
COCCN1C(=O)/C(=C2/C(=O)N(CC(=O)Nc3ccccc3Cl)c3ccccc32)SC1=S: inactive
CCCC(=O)NC(=S)Nc1ccccc1F: inactive
O=C(CN1C(=O)/C(=C2\SC(=S)N(CCS(=O)(=O)O)C2=O)c2ccccc21)Nc1cccc(Br)c1: active
COc1ccc(NC(=O)CN2C(=O)/C(=C3\SC(=S)N(C4CCS(=O)(=O)C4)C3=O)c3ccccc32)cc1 (stereo unspecified): inactive

Now let's try a different one.
IN: In this assay, the call recorded for Cc1cccc(NC(=O)CN2C(=O)/C(=C3\SC(=S)N(CC4CCCO4)C3=O)c3ccccc32)c1 (stereo unspecified) was what?
OUT: inactive

---

target: Tyrosine-protein phosphatase non-receptor type 22 (Homo sapiens) (UniProt Q9Y2R2); assay: PTPN22 lymphoid phosphatase activity blockers – biochemical, fluorescence intensity, uHTS (AID 1779); conditions: recombinant LYP phosphatase, at 11.5 µM, active compounds read high;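 further: plate controls were vehicle with enzyme for no effect and no enzyme for full effect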
Sequence (Q9Y2R2 whole entry, looked up): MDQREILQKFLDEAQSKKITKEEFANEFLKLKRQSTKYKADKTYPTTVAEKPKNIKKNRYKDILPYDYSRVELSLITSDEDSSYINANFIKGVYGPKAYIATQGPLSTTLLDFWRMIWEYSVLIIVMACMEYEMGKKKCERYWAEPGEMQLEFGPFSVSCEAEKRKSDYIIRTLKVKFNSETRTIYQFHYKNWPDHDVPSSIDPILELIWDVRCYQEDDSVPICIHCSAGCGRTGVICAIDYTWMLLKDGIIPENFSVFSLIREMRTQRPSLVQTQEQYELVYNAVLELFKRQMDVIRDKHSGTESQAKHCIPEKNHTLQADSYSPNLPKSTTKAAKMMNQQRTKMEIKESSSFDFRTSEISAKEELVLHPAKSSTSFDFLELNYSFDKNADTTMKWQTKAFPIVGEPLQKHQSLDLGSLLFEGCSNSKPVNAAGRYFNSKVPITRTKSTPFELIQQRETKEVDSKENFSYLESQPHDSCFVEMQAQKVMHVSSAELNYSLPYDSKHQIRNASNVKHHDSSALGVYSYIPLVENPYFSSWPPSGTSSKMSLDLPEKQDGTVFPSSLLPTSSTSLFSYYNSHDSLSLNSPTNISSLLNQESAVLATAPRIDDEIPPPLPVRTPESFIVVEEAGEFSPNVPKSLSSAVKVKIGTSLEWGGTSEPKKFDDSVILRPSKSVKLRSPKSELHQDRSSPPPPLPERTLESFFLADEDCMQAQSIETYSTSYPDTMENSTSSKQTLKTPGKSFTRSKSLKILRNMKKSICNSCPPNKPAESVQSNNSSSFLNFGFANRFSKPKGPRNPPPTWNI
The campaign covered roughly 290,000 compounds. About 160 (0.055%) were called active. The sample holds actives, similar compounds and a random draw of the others, so the mix is not that of the screen.
VALUE_KIND: inhibition (%)
One number for each entry, in %.

Take a look at these entries with their results.
Cc1ccc(NC(=Nc2ccc(Br)cc2)N2CCOCC2)cc1C: -2.9
CC(=O)NS(=O)(=O)c1ccc(NC(=O)C2C3C=CC(C3)C2C(=O)O)cc1 (stereo unspecified): 59.6
COc1ccc(C(=O)c2no[n+]([O-])c2C(=O)c2ccc(OC)cc2)cc1: 7.8
CC(=O)N(C)c1ccc(NC(=S)Nc2cccc3ccccc23)cc1: -2.8

Please go through the list and note inhibition for each compound.
1. CCC(=O)N(Cc1cc2cc(OC)ccc2[nH]c1=O)c1cccc(C)c1
2. O=C(c1cccs1)c1no[n+]([O-])c1C(=O)c1cccs1

OUT:
1: -4.9; 2: 55.5

---

biological target: Tyrosine-protein phosphatase non-receptor type 22 (Homo sapiens); assay: PTPN22 lymphoid phosphatase activity blockers – biochemical, fluorescence intensity, uHTS (AID 1779); details: recombinant LYP phosphatase, at 11.5 µM;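 further: plate controls were vehicle with enzyme for no effect and no enzyme for full effect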
Hit rate of the full screen: of about 290,000 compounds, about 160 (0.055%) were called active. No stated cut-off is given here; in the data, active means inhibition above about 50%; inactive means the rest. What follows is part of a selection rich in actives, with near analogues and random picks from the rest.
Respond only with the outcome that fits, drawn from active, inactive

# example entries with known answers
Cc1ccc(NC(=O)C2CCCN2C(=O)NC2CCCCC2)cc1C (stereo unspecified): inactive
COc1cc2c(C(=O)Nc3ccccc3F)cn(C)c(=O)c2cc1OC: inactive
CN(C)S(=O)(=O)N1CCN(S(=O)(=O)c2ccc3ccccc3c2)CC1: active
Cc1nc(-c2ccc(S(=O)(=O)N3CCN(CCc4ccccc4)CC3)s2)cs1: inactive
CSc1nc2ccc(NS(=O)(=O)c3ccc(Cl)s3)cc2s1: inactive

IN: In this assay, the call recorded for CN1CCN(S(=O)(=O)c2ccc3ccccc3c2)CC1 was what?
OUT: inactive
